test system: OVCAR-8 ovarian; experiment: NCI-60 one-dose screen, 48 h (100 = growth as untreated, 0 = no growth, -100 = all killed); details: 10 µM unless noted
The panel holds about 83,000 compounds, 20% with a hit somewhere; the sample as a whole holds those more often.
quantity kind: growth (%)
Quick reminder: number only, in %, skip the unit.

Clc1ccc2c(c1)N(C1CCCN(Cc3ccccc3)C1)c1ccccc1S2 (stereo not drawn) | 37.9

Kindly review the next compound as well.
Record ON=C(C1CCCCC1)C1CCCCC1 has OVCAR-8 ovarian growth equal to 107

----------
system: SR leukemia; test: NCI-60 one-dose screen, 48 h (100 = growth as untreated, 0 = no growth, -100 = all killed); conditions: 10 µM unless noted
Compounds without any hit were thinned out: in the full panel of roughly 83,000, 20% have a hit. Activity calls are given as the source filed them. The calls were made as follows: active = growth percent below 10; inactive = the rest.
quantity kind: growth

As a guide, the following entries are already answered.
COc1ccc(CCNC(=S)NN)cc1OC | 104% (inactive)
CCOC(=O)CN1CCC(C(=O)OCC)CC1 | 124% (inactive)
COC(=O)c1nc(N)nc(C(=O)OC)c1C(=O)c1ccc(F)cc1 | 112% (inactive)
Nc1c(Cl)cc2c(c1Br)C(=O)c1ccccc1C2=O | 78.4% (inactive)
O=S(=O)(O)c1ccc2cc(O)ccc2c1 | 101% (inactive)

Entry O=C(O)c1cc(=O)[nH]c(=O)[nH]1 , growth reported as 104% (inactive)

Entry OC1CCCN(Cc2ccccc2)C1 (stereo not drawn) , growth reported as 88.6% (inactive)

Entry OCCS , growth reported as 90.5% (inactive)

----------
test system: MDA-MB-435 melanoma; experiment: NCI-60 one-dose screen, 48 h (100 = growth as untreated, 0 = no growth, -100 = all killed); details: 10 µM unless noted
The panel holds about 83,000 compounds, 20% with a hit somewhere; the sample as a whole holds those more often.
quantity kind: growth (%)
Quick reminder: number only, in %, skip the unit.

CCOC(C)=N | 118
CN(C=O)c1ccccc1 | 102
O=C(c1ccncc1)c1c(Cc2ccccc2)ccc2ccccc12 | 83.2
Cc1cnc(N)s1 | 104
O=C(O)c1ccc2c3ccc(C(=O)O)c4c(C(=O)O)ccc(c5ccc(C(=O)O)c1c25)c43 | 101
Nc1ccccc1SC1CC(=O)N(c2ccc(I)cc2)C1=O (centres undefined) | 91.8
CC(C)(C)OC(=O)c1ccc(NCc2cc(O)ccc2O)cc1 | 20
O=C1Cc2ccccc2C(=O)N1 | 99.4

Record O=[N+]([O-])c1ccc(NC(c2ccccc2)c2ccc3cccnc3c2O)cc1 (centres undefined) has MDA-MB-435 melanoma growth equal to 32.8

Record Cc1cccc(Cl)c1N has MDA-MB-435 melanoma growth equal to 95.7

Record COc1cc2c(cc1O)C(=O)CCCC2 has MDA-MB-435 melanoma growth equal to 99.2

Record CC(=O)Nc1cscc1NC(C)=O has MDA-MB-435 melanoma growth equal to 89.1

Record CC(C)(C)C1CCC(=NO)CC1 (centres undefined) has MDA-MB-435 melanoma growth equal to 99.8

Record C#CCOC(=O)C(N)CS (centres undefined) has MDA-MB-435 melanoma growth equal to 96.6

----------
test system: SNB-19 CNS; assay: NCI-60 one-dose screen, 48 h (100 = growth as untreated, 0 = no growth, -100 = all killed); details: 10 µM unless noted
Compounds without any hit were thinned out: in the full panel of roughly 83,000, 20% have a hit. The source made the active and inactive calls. Rule for the calls: active = growth percent below 10; inactive = the rest.
quantity kind: growth

As a guide, the following entries are already answered.
CC1(C)CC(=O)NC1=O | 101% (inactive)
S=c1nn[nH]n1C1CCCCC1 | 111% (inactive)
CC1CC(O)CC(C)(C)C1.CC1CC(O)CC(C)(C)C1.CC1CC(O)CC(C)(C)C1.CC1CC(O)CC(C)(C)C1.[Ti] (stereo not drawn) | 93.4% (inactive)
Cc1cc(=NO)cc(C)n1O | 103% (inactive)

Entry COC(=O)CCOc1ccccc1 , growth reported as 99.5% (inactive)
